target_under_test: human mGlu5a receptor (Homo sapiens)
Construct: expressed in transfected cells
procedure_text: Intracellular Ca2+ mobilization assay (mGlu5 PAM)
Assay type: cell-based
study_conditions: HEK-293 cells stably transfected with human mGlu5a; L-glutamate added at EC20 after 10-30 min pre-incubation with test compound; read-out: EC50 (nM) mGlu5PAM
Here, each record is paired with measured log10 EC50 data.
Please interpret these as log10 of EC50 where EC50 is in nM.

Item C(#Cc1cnc2nc(N3CCCC3)nn2c1)c1ccccc1 [Example 51] with human mGlu5a receptor (Homo sapiens) - log10 EC50?
1.75

Also need C(#Cc1cnc2ncnn2c1)c1ccccc1 [Example 32] , thanks.
2.32

Also need CC(C)(C)c1cc2ncc(C#Cc3cccnc3)cn2n1 [Example 13] , thanks.
1.52

Also need CC(C)(C)c1nc2ncc(C#Cc3cncc(Cl)c3)cn2n1 [Example 46] , thanks.
1.67

Also need CC(C)(C)c1cc2ncc(C#Cc3ccc(N)cc3)cn2n1 [Example 27] , thanks.
1.61

Also need Cc1cc2ncc(C#Cc3ccc(Cl)cc3)cn2n1 [Example 8] , thanks.
2.17

Also need CC(C)(C)c1nc2ccc(C#Cc3ccccc3)cn2n1 [Example 39] , thanks.
1.48

Also need N#Cc1cnn2cc(C#Cc3ccccc3)cnc12 [Example 30] , thanks.
2.49

Also need CC(C)(C)c1cc2ncc(C#Cc3ccc(Cl)cc3)cn2n1 [Example 20] , thanks.
2.60

Also need CC(C)(C)c1nc2ncc(C#Cc3ccccc3)cn2n1 [Example 42] , thanks.
0.95

---

Here, each record is paired with measured EC50 data.
target_under_test: human mGlu5a receptor (Homo sapiens)
Construct: expressed in transfected cells
procedure_text: Intracellular Ca2+ mobilization assay (mGlu5 PAM)
Format: cell-based
study_conditions: HEK-293 cells stably transfected with human mGlu5a; L-glutamate added at EC20 after 10-30 min pre-incubation with test compound; read-out: EC50 (nM) mGlu5PAM
Form entry: value (nM) — number only.

Previously resolved entries follow.
CC(C)(C)c1cc2ncc(C#Cc3ccc(N)nc3)cn2n1 = 255
Cc1cc2ncc(C#Cc3cccc(F)c3)cn2n1 = 42

Could you share which EC50 value was measured for CC(C)(C)c1nc2ncc(C#Cc3cc(F)ccc3F)cn2n1 ?
14

Also need COc1cccc(C#Cc2cnc3cc(C(C)(C)C)nn3c2)c1 , thanks.
104

Also need CC(C)(C)c1cc2ncc(C#Cc3cccc(N)c3)cn2n1 , thanks.
37

Also need CC(C)(C)c1cc2ncc(C#Cc3cncc(F)c3)cn2n1 , thanks.
161

Also need CC(C)(C)c1cc2ncc(C#Cc3cncnc3)cn2n1 , thanks.
181

Also need Cc1ccc(C#Cc2cnc3cc(C(C)(C)C)nn3c2)cc1 , thanks.
100

Also need CC(C)(C)c1cc2ncc(C#Cc3cncc(Cl)c3)cn2n1 , thanks.
34

Also need CC(C)(C)c1cc2ncc(C#Cc3cccc(F)c3)cn2n1 , thanks.
5

---

target_under_test: human mGlu5a receptor (Homo sapiens)
Construct: expressed in transfected cells
procedure_text: Intracellular Ca2+ mobilization assay (mGlu5 PAM)
Assay type: cell-based
study_conditions: HEK-293 cells stably transfected with human mGlu5a; L-glutamate added at EC20 after 10-30 min pre-incubation with test compound; read-out: EC50 (nM) mGlu5PAM
quantity_name: EC50 (nM)
Form entry: value (nM) — number only.

Previously resolved entries follow.
C(#Cc1cnc2nc(N3CCOCC3)nn2c1)c1ccccc1 = 69
C(#Cc1cnc2cc(C3CCC3)nn2c1)c1ccccc1 = 182
CC(C)(C)c1cc2ncc(C#Cc3ccc(F)cc3)cn2n1 = 7

Could you share which EC50 value was measured for C(#Cc1ccc2ccnn2c1)c1ccccc1 [Example 33, 6-Phenylethynyl-pyrazolo[1,5-a]pyridine] ?
136

Also need C(#Cc1cnc2ccnn2c1)c1ccccc1 , thanks.
70

---

target_under_test: human mGlu5a receptor (Homo sapiens)
Construct: expressed in transfected cells
procedure_text: Intracellular Ca2+ mobilization assay (mGlu5 PAM)
Type: cell-based
study_conditions: maximal response in % of the maximal stimulatory effect obtained with saturating concentrations of L-glutamate; read-out: Eff. (%)
Classification field: 1 = Emax at or over 80%; 0 = Emax under 80%.

API: above_or_equal(metric=Emax, cutoff=80%) for item CC(C)(C)c1nc2ncc(C#Cc3cc(F)ccc3F)cn2n1 [Example 43]
0

Also need CC(C)(CO)c1nc2ccc(C#Cc3ccccc3)cn2n1 [Example 40] , thanks.
1

Also need Cc1cc2ncc(C#Cc3ccccc3)cn2n1 [Example 2] , thanks.
1

Also need C(#Cc1ccc2cnnn2c1)c1ccccc1 [Example 34] , thanks.
0

---

target_under_test: human mGlu5a receptor (Homo sapiens, UniProt P41594)
Construct: expressed in transfected cells
Sequence (P41594 21-1180 isoform P41594-2 limits assumed): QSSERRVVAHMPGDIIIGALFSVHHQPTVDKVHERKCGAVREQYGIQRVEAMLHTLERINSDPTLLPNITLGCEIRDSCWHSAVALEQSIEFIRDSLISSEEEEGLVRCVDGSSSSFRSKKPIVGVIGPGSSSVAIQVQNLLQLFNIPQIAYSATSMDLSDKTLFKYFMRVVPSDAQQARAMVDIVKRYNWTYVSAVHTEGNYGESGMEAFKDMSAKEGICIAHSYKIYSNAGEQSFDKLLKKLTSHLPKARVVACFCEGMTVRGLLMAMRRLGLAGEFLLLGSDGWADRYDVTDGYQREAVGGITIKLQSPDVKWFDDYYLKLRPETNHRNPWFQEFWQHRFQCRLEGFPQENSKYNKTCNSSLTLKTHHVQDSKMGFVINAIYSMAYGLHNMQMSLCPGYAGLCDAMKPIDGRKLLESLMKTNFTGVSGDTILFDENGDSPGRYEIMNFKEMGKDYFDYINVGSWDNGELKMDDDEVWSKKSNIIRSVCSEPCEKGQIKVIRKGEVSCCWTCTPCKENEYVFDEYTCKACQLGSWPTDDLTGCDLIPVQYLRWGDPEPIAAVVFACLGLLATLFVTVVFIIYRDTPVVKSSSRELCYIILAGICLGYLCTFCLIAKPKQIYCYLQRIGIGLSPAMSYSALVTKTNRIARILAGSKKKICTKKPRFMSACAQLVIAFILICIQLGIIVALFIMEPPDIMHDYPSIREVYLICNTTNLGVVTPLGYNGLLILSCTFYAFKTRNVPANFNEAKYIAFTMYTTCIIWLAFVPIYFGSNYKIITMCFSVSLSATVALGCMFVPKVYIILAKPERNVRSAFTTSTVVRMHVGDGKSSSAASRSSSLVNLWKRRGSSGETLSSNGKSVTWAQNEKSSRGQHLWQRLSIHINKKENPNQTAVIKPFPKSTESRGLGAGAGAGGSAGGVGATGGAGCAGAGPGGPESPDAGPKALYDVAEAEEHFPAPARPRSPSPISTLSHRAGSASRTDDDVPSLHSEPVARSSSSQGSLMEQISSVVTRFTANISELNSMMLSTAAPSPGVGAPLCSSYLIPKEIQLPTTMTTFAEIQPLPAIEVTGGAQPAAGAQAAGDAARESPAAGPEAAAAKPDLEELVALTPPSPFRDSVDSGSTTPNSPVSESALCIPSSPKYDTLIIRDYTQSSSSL
procedure_text: Intracellular Ca2+ mobilization assay (mGlu5 PAM)
Type: cell-based
study_conditions: maximal response in % of the maximal stimulatory effect obtained with saturating concentrations of L-glutamate; read-out: Eff. (%)
Source text: A monoclonal HEK-293 cell line stably transfected with a cDNA encoding for the human mGlu5a receptor was generated; for the work with mGlu5 Positive Allosteric Modulators (PAMs), a cell line with low receptor expression levels and low constitutive receptor activity was selected to allow the differentiation of agonistic versus PAM activity. […]
Categorized via Emax: group A = under 70%, group B = from 70% up to 90%, group C = 90% and over

Use the examples below as a reference point.
CC(C)(C)c1cc2ncc(C#Cc3cccc(F)c3)cn2n1 = group B
CC(C)(C)c1cc2ncc(C#Cc3ccc(F)c(F)c3)cn2n1 = group C
C(#Cc1cnc2ccnn2c1)c1ccccc1 = group C
CC(C)(C)c1cc2ncc(C#Cc3ccc(F)cc3)cn2n1 = group B
CC(C)(O)c1cc2ncc(C#Cc3ccccc3)cn2n1 = group A

Place this compound in its band: CC(C)(C)c1cc2ncc(C#Cc3ccncc3)cn2n1
group A

Also need Cc1cccc(C#Cc2cnc3cc(C(C)(C)C)nn3c2)c1 , thanks.
group A

Also need Fc1cccc(C#Cc2cnc3nc(N4CCOCC4)nn3c2)c1 , thanks.
group C

Also need C(#Cc1ccc2ncnn2c1)c1ccccc1 , thanks.
group C

Also need CC(C)c1cc2ncc(C#Cc3ccccc3)cn2n1 , thanks.
group A

---

target_under_test: human mGlu5a receptor (Homo sapiens)
Construct: expressed in transfected cells
procedure_text: Intracellular Ca2+ mobilization assay (mGlu5 PAM)
Format: cell-based
study_conditions: HEK-293 cells stably transfected with human mGlu5a; L-glutamate added at EC20 after 10-30 min pre-incubation with test compound; read-out: EC50 (nM) mGlu5PAM
We label by threshold. Values of EC50 strictly beneath 200 nM are Criterion met. Values of 200 nM and up are Criterion not met.

Use the examples below as a reference point.
C(#Cc1ccc2ncnn2c1)c1ccccc1 = Criterion not met
CC(C)(O)c1cc2ncc(C#Cc3ccccc3)cn2n1 = Criterion met
CC(C)(C)c1cc2ncc(C#Cc3ccncc3)cn2n1 = Criterion met
Cc1cc2ncc(C#Cc3ccccc3)cn2n1 = Criterion met
C(#Cc1ccc2cnnn2c1)c1ccccc1 = Criterion met

Now look at this one.
Report whether reported EC50 is lower than 200 nM (strictly) for Cc1cccc(C#Cc2cnc3cc(C(C)(C)C)nn3c2)c1
Criterion met

---

Here, each record is paired with measured Emax data.
target_under_test: human mGlu5a receptor (Homo sapiens)
Construct: expressed in transfected cells
procedure_text: Intracellular Ca2+ mobilization assay (mGlu5 PAM)
Assay type: cell-based
study_conditions: maximal response in % of the maximal stimulatory effect obtained with saturating concentrations of L-glutamate; read-out: Eff. (%)
Form entry: value (%) — number only.

Previously resolved entries follow.
CC(C)(C)c1cc2ncc(C#Cc3ccc(Cl)cc3)cn2n1 [Example 20] = 89
C(#Cc1ccc2ccnn2c1)c1ccccc1 [Example 33, 6-Phenylethynyl-pyrazolo[1,5-a]pyridine] = 88
CC(C)(C)c1cc2ncc(C#Cc3cncnc3)cn2n1 [Example 24] = 68
CC(C)(C)c1cc2ncc(C#Cc3cccc(N)c3)cn2n1 [Example 35] = 69
Cc1cc2ncc(C#Cc3cccc(F)c3)cn2n1 [Example 4] = 77

Could you share which Emax value was measured for C(#Cc1cnc2cc(C3CCC3)nn2c1)c1ccccc1 [Example 18] ?
102

---

target_under_test: human mGlu5a receptor (Homo sapiens)
Construct: expressed in transfected cells
procedure_text: Intracellular Ca2+ mobilization assay (mGlu5 PAM)
Assay type: cell-based
study_conditions: HEK-293 cells stably transfected with human mGlu5a; L-glutamate added at EC20 after 10-30 min pre-incubation with test compound; read-out: EC50 (nM) mGlu5PAM
From the text: A monoclonal HEK-293 cell line stably transfected with a cDNA encoding for the human mGlu5a receptor was generated; for the work with mGlu5 Positive Allosteric Modulators (PAMs), a cell line with low receptor expression levels and low constitutive receptor activity was selected to allow the differentiation of agonistic versus PAM activity. […]
quantity_name: EC50 (nM)
Form entry: value (nM) — number only.

Could you share which EC50 value was measured for CC(C)(C)c1cc2ncc(C#Cc3ccccc3N)cn2n1 ?
155

Also need CC(C)(C)c1cc2ncc(C#Cc3ccccc3)cn2n1 , thanks.
5

Also need CC(C)(C)c1nc2ncc(C#Cc3cccc(F)c3)cn2n1 , thanks.
9

Also need Cc1ccc(C#Cc2cnc3cc(C)nn3c2)cc1 , thanks.
132

Also need C(#Cc1cnc2cc(C3CCOCC3)nn2c1)c1ccccc1 , thanks.
472

Reference source: patent US8933094B2
